- targetEntity: recombinant DDB1-CRBN (Homo sapiens)
- Construct: His; made in house; host or cells: High Five insect cells (baculovirus made and propagated in SF9 cells)
- testDescription: Fluorescence polarization-based competition assay for CRBN binding
- recordedConditions: 200 nM CRBN-DDB1, 20 nM pomalidomide-fluorescein tracer 16, triplicates; read-out: FP_CRBN_binding: CRBN binding affinity, EC50
Decide using EC50 alone. Strictly below 700 nM: Met. Equal to or above 700 nM: Not met.

Below, 3 molecules whose answers are already recorded.
CC1c2cccn2CCN1S(=O)(=O)Oc1cccc(C2CCC(=O)NC2=O)c1 (stereo not shown)    Not met
CN(Cc1ncc(C2CC2)o1)S(=O)(=O)Oc1cccc(Nc2ccc3c(c2)C(=O)N(C2CCC(=O)NC2=O)C3=O)c1 (stereo not shown)    Met
O=C1CCC(N2C(=O)c3ccc(Nc4ccc(OS(=O)(=O)N5CCOCC5)cc4)cc3C2=O)C(=O)N1 (stereo not shown)    Met

Dear reviewer, please state whether Cc1cn2c(n1)CN(S(=O)(=O)Oc1cccc(Nc3ccc4c(c3)C(=O)N(C3CCC(=O)NC3=O)C4=O)c1)CC2 (stereo not shown) has EC50 strictly beneath 700 nM.
Met

Would you kindly verify if EC50 of O=C1CCC(N2C(=O)c3cccc(Nc4ccc(OS(=O)(=O)N5CC(CCO)C5)cc4)c3C2=O)C(=O)N1 (stereo not shown) is strictly less than 700 nM?
Met

Record CC(C)(O)C1CCN(S(=O)(=O)Oc2cccc(Nc3ccc4c(c3)C(=O)N(C3CCC(=O)NC3=O)C4=O)c2)C1 (stereo not shown) : is its EC50 strictly below 700 nM?
Met

# check: EC50 < 700 nM for O=C1CCC(N2C(=O)c3cccc(Nc4ccc(OS(=O)(=O)N5C[C@@H](F)[C@H](F)C5)cc4)c3C2=O)C(=O)N1 (stereo partly shown)
Not met

# strict comparison: is reported EC50 < 700 nM? input = CN(Cc1ccc2[nH]nnc2c1)S(=O)(=O)Oc1ccc(Nc2ccc3c(c2)C(=O)N(C2CCC(=O)NC2=O)C3=O)cc1 (stereo not shown)
Not met

Here's an entry: CN(C)c1ncc(CN(C)S(=O)(=O)Oc2cccc(C3CCC(=O)NC3=O)c2)cn1 (stereo not shown) . Is its EC50 below 700 nM?
Not met

Dear colleague, could you confirm whether EC50 of CN(Cc1ncc(C2CC2)o1)S(=O)(=O)Oc1ccc(C2CCC(=O)NC2=O)cc1 (stereo not shown) falls below 700 nM? Thanks.
Met

hey, is EC50 for O=C1CCC(N2C(=O)c3cccc(Nc4ccc(OS(=O)(=O)N5CCC(c6ccncc6)CC5)cc4)c3C2=O)C(=O)N1 (stereo not shown) lower than 700 nM or not?
Not met

Dear colleague, could you confirm whether EC50 of CN(C1CC1)S(=O)(=O)Oc1cccc(C2CCC(=O)NC2=O)c1 (stereo not shown) falls below 700 nM? Thanks.
Not met

----------
- System: RKO WT cells
- testDescription: CellTiter-Glo cytotoxicity of selected compounds (manual, 72 h)
- Assay type: cell-based, human
- recordedConditions: up to 10 μM
- Method: Assessment of gene expression and essentiality in RKO WT Fluorescence Polarization‐based competition assay EC50 values were calculated with GraphPad Prism […] the FP value of free tracer. […] instructions. […] For the screening of the whole SuFEx Data visualization was done with seaborn (https://seaborn.pydata.org, version 0.12.2). […] compounds. (F) Analysis of the cytotoxicity of compounds with treatment‐centric features related to FL2‐ […]
I'd appreciate it if you could supply EC50 values for the items below.

Illustrative cases are given below, each with its answer.
O=C1CCC(N2C(=O)c3ccc(Nc4cccc(OS(=O)(=O)N5CCC(c6ccco6)C5)c4)cc3C2=O)C(=O)N1 (stereo not drawn) [FL1-12]    > 10 µM
O=C1CCC(N2C(=O)c3ccc(Nc4cccc(OS(=O)(=O)N5CC(CCO)C5)c4)cc3C2=O)C(=O)N1 (stereo not drawn) [FL1-2]    > 10 µM

Okay, now this compound:
EC50 lookup needed for CN(C)c1ncc(CN(C)S(=O)(=O)Oc2cccc(Nc3ccc4c(c3)C(=O)N(C3CCC(=O)NC3=O)C4=O)c2)cn1 (stereo not drawn) [FL1-18] , thanks.
> 10 µM

----------
- targetEntity: recombinant DDB1-CRBN (Homo sapiens)
- Construct: His; made in house; host or cells: High Five insect cells (baculovirus made and propagated in SF9 cells)
- testDescription: Fluorescence polarization-based competition assay for CRBN binding
- recordedConditions: 200 nM CRBN-DDB1, 20 nM pomalidomide-fluorescein tracer 16, triplicates; read-out: FP_CRBN_binding: CRBN binding affinity, EC50
readoutType: pEC50
Give bare numbers, as −log10 of the molar value.

// worked examples, pEC50 included
CC(C)(O)C1CCN(S(=O)(=O)Oc2ccc(C3CCC(=O)NC3=O)cc2)C1 (stereo not shown)    6.02
CN(Cc1ncc(C2CC2)o1)S(=O)(=O)Oc1cccc(C2CCC(=O)NC2=O)c1 (stereo not shown)    6.08
CC(C)(O)C1CCN(S(=O)(=O)Oc2cccc(Nc3cccc4c3C(=O)N(C3CCC(=O)NC3=O)C4=O)c2)C1 (stereo not shown)    6.35
CC1(C)CN(S(=O)(=O)Oc2cccc(C3CCC(=O)NC3=O)c2)CC2(CCOC2)O1 (stereo not shown)    5.87
CC(O)CN(C)S(=O)(=O)Oc1cccc(Nc2cccc3c2C(=O)N(C2CCC(=O)NC2=O)C3=O)c1 (stereo not shown)    6.52
O=C1CCC(N2C(=O)c3cccc(Nc4cccc(OS(=O)(=O)N5CCOCC5)c4)c3C2=O)C(=O)N1 (stereo not shown)    6.67
CN(C)c1ncc(CN(C)S(=O)(=O)Oc2ccc(Nc3ccc4c(c3)C(=O)N(C3CCC(=O)NC3=O)C4=O)cc2)cn1 (stereo not shown)    6.06
O=C1CCC(N2C(=O)c3ccc(Nc4ccc(OS(=O)(=O)N5CCC(c6ccncc6)CC5)cc4)cc3C2=O)C(=O)N1 (stereo not shown)    5.71

Respectfully, I request pEC50 for each entry included below.
1. CN(Cc1ncc(C2CC2)o1)S(=O)(=O)Oc1ccc(Nc2cccc3c2C(=O)N(C2CCC(=O)NC2=O)C3=O)cc1 (stereo not shown)
2. O=C1CCC(c2cccc(OS(=O)(=O)N3CCOCC3)c2)C(=O)N1 (stereo not shown)

1: 6.00; 2: 6.17

----------
- targetEntity: recombinant DDB1-CRBN (Homo sapiens)
- Construct: His; made in house; host or cells: High Five insect cells (baculovirus made and propagated in SF9 cells)
- testDescription: Fluorescence polarization-based competition assay for CRBN binding
- recordedConditions: 200 nM CRBN-DDB1, 20 nM pomalidomide-fluorescein tracer 16, triplicates; read-out: FP_CRBN_binding: CRBN binding affinity, EC50
I'd be grateful if you could share measured EC50 for these entries.
One number for each entry, in nM.

CC1c2cccn2CCN1S(=O)(=O)Oc1cccc(Nc2cccc3c2C(=O)N(C2CCC(=O)NC2=O)C3=O)c1 (stereo not drawn) [FL3-19]    742

State the recorded EC50 for every item in the following list.
1. CC1(C)CN(S(=O)(=O)Oc2ccc(Nc3ccc4c(c3)C(=O)N(C3CCC(=O)NC3=O)C4=O)cc2)CC2(CCOC2)O1 (stereo not drawn) [FL2-8]
2. CN(Cc1ccc2[nH]nnc2c1)S(=O)(=O)Oc1cccc(C2CCC(=O)NC2=O)c1 (stereo not drawn) [FL6-15]
3. CC1(C)CN(S(=O)(=O)Oc2ccc(C3CCC(=O)NC3=O)cc2)CCS1(=O)=O (stereo not drawn) [FL5-7]

1. 2590
2. 520
3. 864

Items follow; give EC50 for each.
1. CN(Cc1ncnn1C)S(=O)(=O)Oc1ccc(C2CCC(=O)NC2=O)cc1 (stereo not drawn) [FL5-11]
2. CN(C1CC1)S(=O)(=O)Oc1cccc(Nc2ccc3c(c2)C(=O)N(C2CCC(=O)NC2=O)C3=O)c1 (stereo not drawn) [FL1-21]
3. O=C1CCC(N2C(=O)c3ccc(Nc4cccc(OS(=O)(=O)N5CC(CCO)C5)c4)cc3C2=O)C(=O)N1 (stereo not drawn) [FL1-2]
4. CC1c2cccn2CCN1S(=O)(=O)Oc1cccc(Nc2ccc3c(c2)C(=O)N(C2CCC(=O)NC2=O)C3=O)c1 (stereo not drawn) [FL1-19]
5. O=C1CCC(N2C(=O)c3ccc(Nc4cccc(OS(=O)(=O)N5CCC(c6ccco6)C5)c4)cc3C2=O)C(=O)N1 (stereo not drawn) [FL1-12]

1: 1270; 2: 1050; 3: 419; 4: 898; 5: 2780

Each molecule below has a reported value. Please supply its EC50.
1. CC1c2cccn2CCN1S(=O)(=O)Oc1ccc(C2CCC(=O)NC2=O)cc1 (stereo not drawn) [FL5-19]
2. CC1(C)CN(S(=O)(=O)Oc2cccc(Nc3ccc4c(c3)C(=O)N(C3CCC(=O)NC3=O)C4=O)c2)CC2(CCOC2)O1 (stereo not drawn) [FL1-8]
3. CN(C)c1ncc(CN(C)S(=O)(=O)Oc2cccc(Nc3cccc4c3C(=O)N(C3CCC(=O)NC3=O)C4=O)c2)cn1 (stereo not drawn) [FL3-18]

1. 940
2. 930
3. 676

Give me EC50 for each of these molecules, listed below.
1. CN(Cc1ncc(C2CC2)o1)S(=O)(=O)Oc1ccc(Nc2ccc3c(c2)C(=O)N(C2CCC(=O)NC2=O)C3=O)cc1 (stereo not drawn) [FL2-14]
2. O=C1CCC(c2ccc(OS(=O)(=O)N3CC4(CNC(=O)N4)C3)cc2)C(=O)N1 (stereo not drawn) [FL5-9]
3. Cc1cn2c(n1)CN(S(=O)(=O)Oc1ccc(C3CCC(=O)NC3=O)cc1)CC2 (stereo not drawn) [FL5-13]
4. O=C1CCC(N2C(=O)c3ccc(Nc4ccc(OS(=O)(=O)N5CC(CCO)C5)cc4)cc3C2=O)C(=O)N1 (stereo not drawn) [FL2-2]
5. O=C1CCC(c2ccc(OS(=O)(=O)N3CCOCC3)cc2)C(=O)N1 (stereo not drawn) [FL5-5]
6. CC1c2cc(F)ccc2CCN1S(=O)(=O)Oc1ccc(Nc2ccc3c(c2)C(=O)N(C2CCC(=O)NC2=O)C3=O)cc1 (stereo not drawn) [FL2-17]

991
1050
771
675
829
1290
